Values compiled from patent US20250295799A1.

Target: T1, human glypican-3 (GPC3) (human, UniProt P51654 25-554)
T1 construct: Endogenous on JHH-7, JHH-5, HepG2 and NCI-H446 tumour cells, or transiently expressed on CHO-S cells from a pTT5 plasmid; also called hGPC3; huGPC3
Assay: flow cytometry on CHO-S cells transfected with human GPC3;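 note: antibody binding to transiently transfected CHO-S cells after 24 hours at 4 °C, read as geometric mean fluorescence of anti-human AF647 in live cells, fitted against antibody concentration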
ENDPOINT_LABEL: Bmax (MFI)
Write the number in MFI without appending the unit.

Recorded Bmax (MFI) for H18L6_LC_G34V mAb, v40211 (antibody, human IgG1, kappa, V domains shown, M3-H18L6 chains with the stated light chain point mutation, IgG1/kappa) VH: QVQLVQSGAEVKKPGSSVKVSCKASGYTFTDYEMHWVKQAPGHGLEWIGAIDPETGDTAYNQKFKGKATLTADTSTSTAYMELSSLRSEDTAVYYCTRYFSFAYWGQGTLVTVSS VL: EIVLTQSPATLSLSPGERATISCRSSQSLRHSNVNTYLQWYQQKPGQAPRLLIYKVSNRFSGVPARFSGSGSGTDFTLTISSLEPEDFAVYFCYQSKHVPYTFGGGTKVEIKR , please?
2100

Recorded Bmax (MFI) for H18L6_LC_G34K mAb, v40207 (antibody, human IgG1, kappa, V domains shown, Full-size IgG1/kappa) VH: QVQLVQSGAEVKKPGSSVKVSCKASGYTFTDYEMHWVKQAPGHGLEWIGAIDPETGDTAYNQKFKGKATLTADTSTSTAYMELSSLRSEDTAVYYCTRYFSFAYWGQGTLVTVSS VL: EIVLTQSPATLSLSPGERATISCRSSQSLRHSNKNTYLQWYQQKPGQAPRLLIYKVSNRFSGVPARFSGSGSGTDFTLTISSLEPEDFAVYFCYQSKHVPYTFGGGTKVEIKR , please?
2330

Recorded Bmax (MFI) for H18L6_LC_G34Q mAb, v40208 (antibody, human IgG1, kappa, V domains shown, Full-size IgG1/kappa) VH: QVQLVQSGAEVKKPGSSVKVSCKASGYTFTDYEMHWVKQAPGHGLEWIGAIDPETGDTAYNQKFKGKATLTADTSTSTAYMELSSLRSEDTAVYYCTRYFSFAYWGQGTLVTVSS VL: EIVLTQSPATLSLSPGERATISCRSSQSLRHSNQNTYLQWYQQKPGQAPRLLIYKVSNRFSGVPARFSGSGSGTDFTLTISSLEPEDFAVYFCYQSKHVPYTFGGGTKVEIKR , please?
2280

Recorded Bmax (MFI) for H18L6_LC_G34R mAb, v40206 (antibody, human IgG1, kappa, V domains shown, Full-size IgG1/kappa) VH: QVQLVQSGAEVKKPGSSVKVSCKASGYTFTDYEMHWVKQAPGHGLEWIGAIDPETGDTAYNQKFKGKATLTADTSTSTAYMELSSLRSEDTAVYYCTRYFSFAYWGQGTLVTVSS VL: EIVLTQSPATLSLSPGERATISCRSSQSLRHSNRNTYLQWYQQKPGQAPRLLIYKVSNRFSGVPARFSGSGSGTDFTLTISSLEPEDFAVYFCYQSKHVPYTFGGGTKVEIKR , please?
2450

Recorded Bmax (MFI) for H18L6_LC_G34A mAb, v40212 (antibody, human IgG1, kappa, V domains shown, M3-H18L6 chains with the stated light chain point mutation, IgG1/kappa) VH: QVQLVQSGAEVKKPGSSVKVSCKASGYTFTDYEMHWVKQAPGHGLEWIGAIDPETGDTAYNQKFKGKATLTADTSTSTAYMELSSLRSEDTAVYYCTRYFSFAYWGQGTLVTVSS VL: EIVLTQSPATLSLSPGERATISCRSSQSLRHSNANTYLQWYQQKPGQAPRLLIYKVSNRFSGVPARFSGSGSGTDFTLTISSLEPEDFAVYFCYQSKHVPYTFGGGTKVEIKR , please?
2200
